Readings of pIC50 for the listed compounds
- measurement-target: human TLR9 (Homo sapiens (Human), UniProt Q9NR96)
- Sequence (Q9NR96 26-1032): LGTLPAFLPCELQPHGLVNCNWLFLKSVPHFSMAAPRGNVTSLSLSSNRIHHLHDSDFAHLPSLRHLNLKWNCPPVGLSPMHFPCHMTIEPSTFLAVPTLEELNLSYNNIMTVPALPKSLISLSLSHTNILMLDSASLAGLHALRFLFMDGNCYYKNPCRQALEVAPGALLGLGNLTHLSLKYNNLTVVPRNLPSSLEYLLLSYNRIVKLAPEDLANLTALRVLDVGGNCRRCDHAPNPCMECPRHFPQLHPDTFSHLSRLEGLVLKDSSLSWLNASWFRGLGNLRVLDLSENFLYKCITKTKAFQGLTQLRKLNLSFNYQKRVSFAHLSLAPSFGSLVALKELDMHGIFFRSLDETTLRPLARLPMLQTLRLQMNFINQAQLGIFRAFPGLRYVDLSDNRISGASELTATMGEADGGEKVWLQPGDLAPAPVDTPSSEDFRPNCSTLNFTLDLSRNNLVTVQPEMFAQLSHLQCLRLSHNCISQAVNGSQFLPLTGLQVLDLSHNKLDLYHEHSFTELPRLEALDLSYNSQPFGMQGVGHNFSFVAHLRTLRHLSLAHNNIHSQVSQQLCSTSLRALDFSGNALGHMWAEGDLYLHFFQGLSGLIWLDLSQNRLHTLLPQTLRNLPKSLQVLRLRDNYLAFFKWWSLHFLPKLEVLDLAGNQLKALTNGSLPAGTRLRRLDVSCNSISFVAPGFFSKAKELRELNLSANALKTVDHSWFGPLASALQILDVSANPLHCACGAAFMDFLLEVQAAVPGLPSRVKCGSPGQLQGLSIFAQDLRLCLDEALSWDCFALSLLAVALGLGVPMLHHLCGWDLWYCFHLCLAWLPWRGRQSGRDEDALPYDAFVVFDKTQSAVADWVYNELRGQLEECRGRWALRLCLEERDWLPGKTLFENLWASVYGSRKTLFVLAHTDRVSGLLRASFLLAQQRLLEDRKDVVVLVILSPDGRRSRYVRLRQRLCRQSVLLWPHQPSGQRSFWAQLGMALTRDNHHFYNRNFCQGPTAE
- experimental-details: TLR9 inhibition reporter assay (HEK-Blue SEAP);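 note: SEAP driven by IFN-β minimal promoter carrying five NF-κB and AP-1 sites, 22 h at 37 °C, compounds 0.05 nM–50 µM, inhibition scaled between agonist-plus-DMSO and reference-inhibitor wells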
- experimental-context: read-out: TLR9 IC50; HEK-Blue cells overexpressing human TLR9, ODN2006 5 nM stimulation, SEAP reporter
By convention, pIC50 is the negative base-10 log of a molar concentration.

Worked examples follow.
Cc1c(-c2[nH]c3cnc(C4CCC(NC(C)C)CC4)cc3c2C(C)C)cn2ncnc2c1C (stereo not shown) [Example 318]
6.07
CCN(C)C1CCC(c2ncc3[nH]c(-c4cc(C)c5ncnn5c4)c(C(C)C)c3c2F)CC1 (stereo not shown) [Example 199]
5.92

Incoming: Return reported pIC50; argument: Cc1c(-c2[nH]c3cnc(N4CCC(NC5COC5)CC4)c(C)c3c2C(C)C)cn2ncnc2c1C [Example 237]
Outgoing: 5.68

Incoming: Return reported pIC50; argument: COCCN1CCN(c2ncc3[nH]c(-c4cc(OC)c5ncnn5c4)c(C(C)C)c3c2F)[C@H](C)C1 [Example 444]
Outgoing: 4.70

Incoming: Return reported pIC50; argument: Cc1c(N2CCC(NC3COC3)CC2)ncc2[nH]c(-c3cc(C)c4ncnn4c3)c(C(C)C)c12 [Example 140]
Outgoing: 5.52

Incoming: Return reported pIC50; argument: COc1cc(-c2[nH]c3cnc(N4CC5(C4)CN(C4CCN(C(C)C)CC4)C5)c(F)c3c2C(C)C)cn2ncnc12 [Example 377]
Outgoing: 5.85
